- System: MS2 coat protein
- assay-summary: apparent Kd, MS2 coat protein; higher = weaker binding; RNA-MaP array; theophylline 2 mM where present
- assay-setup: ligand present: theophylline; designed as: ON switch for theophylline
Grouping by measured apparent Kd is done with the following cut points: lower band = under 30 nM, central band = from 30 nM up to 70 nM, upper band = 70 nM and over

These solved cases illustrate the format of a correct answer.
query_sequence=AUAAAUAUAACCGAUACCAGCCUUAUACAUGAGGAUCACCCAUGUUAUGCUUCCUUUUUUGGCCCUUGGCAGCGGAAAUGGGUAA target="MS2 coat protein" category_label="central band"
query_sequence=UGUACAUGAGGAUCACCCAUGUUACAUGAUACCAGACAUGAGAGUGUCCCUUGGCAGCAUGGAGCUGAUACGGCGGGAAGCCGGA target="MS2 coat protein" category_label="central band"
query_sequence=UCGUGUGUUUCGGAUACCAGUGAAAUCGAUACAUGAGGAUCACCCAUGUGAGAGGAUGUACACCCUUGGCAGCUGUCUGUAUCUG target="MS2 coat protein" category_label="lower band"
query_sequence=CAUACUUUAGUAUGACGUGUGGGCAGUGAUACCAGAUACGAAAGUAUCCCUUGGCAGCACAACAUGAGGAUCACCCAUGUAAUUA target="MS2 coat protein" category_label="central band"

Tag the class for GGUGGGACUUGUGAUACCAGCCCAGUUCUAAUCGAACUGCACAUGAGGAUCACCCAUGUCGGCCCUUGGCAGCAUGAGUAUUUAU lower band

Please indicate the class for UUACAUGAGGAUCACCCAUGUCAUAAUGAUACCAGAUAGUUAAUGAUCCCUUGGCAGCAUAAUACCUAGACAUUUAAGUCAUAGG based on its apparent Kd. central band

Bin this entry: UGUUUGGUGCGCGAGUGUUGGAUAAUUGAUACCAGUGUAGAUGUGCGCCCUUGGCAGCGAAUCCUAACAUGAGGAUCACCCAUGU central band

Exercise: read the entry GCACCAGGUACGGAUACCAGCUGCCAGAGAUACAUGAGGAUCACCCAUGUGACCUGAUUUAGCCCUUGGCAGCUGUACCUGGUGC and state which class it falls under. central band

---

- Test system: MS2 coat protein
- assay-summary: apparent Kd, MS2 coat protein; higher = weaker binding; RNA-MaP array
- assay-setup: designed as: OFF switch for theophylline; no ligand
experimental-endpoint: apparent Kd (nM)
Express your answer in nM, writing the number without its unit.

query_sequence=AAUGAUGCGAUCUACAGUCGAGGAUUCGAUACCAGCAACGGGCGUUGCCCUUGGCAGCGAGCUACAUGAGGAUCACCCAUGUUAC units_of_measure=nM readout_value=19.9

Which apparent Kd reading was recorded for the sequence CUGACGUAGGAAGAUAUCUGGAACAAGGAUACCAGUAAACCAACAUACCCUUGGCAGCCUAAAACAUGAGGAUCACCCAUGUAAU ? 12.4

May I ask what apparent Kd has been recorded for CAUGAGAGAUUGUUUUGUGACUCUAACGAUACCAGAGUAGGACUUCUCCCUUGGCAGCGUGUGACAUGAGGAUCACCCAUGUCCA ? 10.6

Request the reported apparent Kd associated with GGUUGGUCGCAGGAUACCAGUCCACCCGUGAUACUGCUAAACAUGAGGAUCACCCAUGUCGACCCUUGGCAGCCUGUCCAUGCGU 16.3
